Just for reference, PubChem BioAssay is where these values come from.

Reported growth inhibition values for the following molecules.
# assay-protocol: antimalarial activity against Dd2 strain (AID 2302);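 note: 0% = DMSO untreated growth and 100% = chloroquine plus artemisinin killed control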
# experimental-conditions: P. falciparum Dd2 in RBCs, LDH growth readout, 72 h; at 2 µM; hits give high values
Enter your answer as a number in %; do not include the unit.

molecule	measure-unit	growth inhibition
CN1CCN(Cc2cc(NC(=O)c3ccc(-c4ccc(Cl)cc4Cl)cc3)ccc2-c2ccccc2)CC1	%	21

# growth inhibition lookup, item `Cc1ccc(Cn2nc(Cl)c(N3CCCNCC3)cc2=O)cc1NC(=O)Nc1ccc(-c2ccccc2)cc1` 55

// returns reported growth inhibition for input `CCOc1ccc(C(=O)Nc2cc(Br)c3c(c2)CNCC3)cc1Cl` 8

Need growth inhibition, item `CN(CCN1CCCC1)c1nc2ccc(-n3cnc4cc(-c5ccc(Cl)cc5)sc4c3=O)cc2[nH]1` 15

Can you share its growth inhibition? I mean this molecule: `Cc1ccccc1Oc1nc2ccccc2nc1SCC(=O)NC(C)C` 55

What value of growth inhibition has been reported for the following molecule? `CCN(CC)CCN(Cc1ccc(-c2ccc(C(F)(F)F)cc2)cc1)C(=O)Cn1c(CCc2ccc(F)cc2)nc(=O)c2sccc21` 90

====

The entries below are paired with their reported inhibition.
# subject-of-test: L-lactate dehydrogenase (Plasmodium falciparum (isolate CDC / Honduras)) (UniProt Q27743)
# Sequence (Q27743 whole entry, looked up): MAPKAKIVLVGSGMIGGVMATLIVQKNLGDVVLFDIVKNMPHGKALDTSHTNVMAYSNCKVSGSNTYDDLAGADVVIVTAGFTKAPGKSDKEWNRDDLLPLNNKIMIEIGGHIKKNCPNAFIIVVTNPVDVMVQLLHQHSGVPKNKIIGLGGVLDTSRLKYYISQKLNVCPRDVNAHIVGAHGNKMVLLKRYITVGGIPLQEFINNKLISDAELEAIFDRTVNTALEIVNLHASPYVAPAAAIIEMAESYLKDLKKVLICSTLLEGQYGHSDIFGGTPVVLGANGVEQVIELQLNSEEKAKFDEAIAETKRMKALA
# assay-protocol: PfLDH activity inhibition – cell lysate, 3D7 strain, counter-screen for P. falciparum growth inhibition project (AID 2304);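 note: 0% = vehicle and 100% = reference inhibitor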
# experimental-conditions: P. falciparum 3D7 crude extract, LDH APAD/NBT absorbance; at 2 µM; hits give high values
Numeric only. Scale: %

compound	inhibition / %
CC(C)(C)c1ccc(C(=O)Nc2ccc(NC(=O)c3ccc([N+](=O)[O-])o3)cc2)cc1	2
Cc1cc(=O)c(-c2ccc(OCCSc3ccc(C(F)(F)F)cn3)cc2)c(C)[nH]1	7
CC(C)C[C@H](NC(=O)c1ccc(OCCN2CCOCC2)cc1)C(=O)NC(/C=N/N1CCCC1=O)C(C)C (some centres undefined)	-2
COc1cc(Nc2ccnc3cc(-c4nccs4)ccc23)ccc1OCCCc1nc2ccccc2[nH]1	5
O=C(Nc1ccc(OC2CCN(Cc3ccsc3)CC2)c(Cl)c1)c1ccc(F)cc1	0

Item `O=S(=O)(c1cc(Cl)ccc1Cl)N1CCCCC(c2ccc(C(F)(F)F)cc2)=N1` with L-lactate dehydrogenase (Plasmodium falciparum (isolate CDC / Honduras)) (UniProt Q27743) - inhibition? -1

Field: inhibition (L-lactate dehydrogenase (Plasmodium falciparum (isolate CDC / Honduras)) (UniProt Q27743)). Entry: `O=C(Nc1ccc(Cl)cc1)c1ccc(CN2CCCN(Cc3ccccc3)CC2)cc1` 1

I'm curious: which inhibition was measured for `Cc1[nH]nc2ccc(-c3ccc4nccc(N5CCC(N)CC5)c4c3)cc12` tested on L-lactate dehydrogenase (Plasmodium falciparum (isolate CDC / Honduras)) (UniProt Q27743)? -3

Identify the measured inhibition of `O=C(/C=C/c1cccc(Cl)c1)NCCCCCN1CCC(c2c[nH]c3ccccc23)CC1` for L-lactate dehydrogenase (Plasmodium falciparum (isolate CDC / Honduras)) (UniProt Q27743). -2

====

# subject-of-test: Plasmodium falciparum protein kinase 6 (PK6, PF3D7_1337100) (UniProt Q8IDW1)
# assay-protocol: PfPK6 kinase inhibitors, biochemical, TCAMS library (AID 1159586)
# experimental-conditions: recombinant PfPK6, Kinase-Glo ATP depletion luminescence
Potency and affinity values are given separately. Calls of active or inactive are those of the source. The rule behind the calls is not given here.
readout-name: outcome

Below: 5 molecules and their reported outcome.
molecule	outcome
COc1ccc2ncc(Cl)c(CCN3C[C@H](CNCc4ccc5c(n4)NC(=O)CS5)[C@H](O)C3)c2n1	inactive
CN1CCC(N(Cc2ccc(-c3ccc(C(F)(F)F)cc3)cc2)C(=O)Cn2cc(Cc3cnn(C)c3)c(=O)nc2SCc2cccc(F)c2F)CC1	inactive
CCCC(C)Nc1nc(C)cc(N[C@@H](CC(C)C)C(=O)NCc2cccc(F)c2)n1 (some centres undefined)	inactive
COc1cccc2cc(C(=O)N[C@@H](CC(C)C)C(=O)N[C@H](/C=N/N(C)C(=O)OC(C)(C)C)CC(=O)OC(C)(C)C)oc12	inactive
O=C(NC1CCN(CC2(c3ccccc3)CCCC2)CC1)c1[nH]ncc1Cl	inactive

Sample `Cc1cc(N2CCCN(C)CC2)nc(Nc2ccc(Br)cc2)n1` — what was its outcome? inactive

Fill in the blank: the reported outcome of `COc1ccc2c(NN=Cc3ccc(N(C)C)cc3)ccnc2c1` is ____. inactive

Report outcome for `CCCNCc1ccc(-c2ccc(CN(Cc3cccs3)C(=O)C3CCN(C)CC3)cc2)nc1` please. inactive

outcome lookup needed for `CCCNc1ccc2nccc(CCN3CCC(NCc4ccc5c(c4)NC(=O)CS5)CC3)c2n1` , thanks. inactive

====

# subject-of-test: Calcium-dependent protein kinase 4 (Plasmodium falciparum (isolate 3D7)) (UniProt Q8IBS5)
# Sequence (Q8IBS5 whole entry, looked up): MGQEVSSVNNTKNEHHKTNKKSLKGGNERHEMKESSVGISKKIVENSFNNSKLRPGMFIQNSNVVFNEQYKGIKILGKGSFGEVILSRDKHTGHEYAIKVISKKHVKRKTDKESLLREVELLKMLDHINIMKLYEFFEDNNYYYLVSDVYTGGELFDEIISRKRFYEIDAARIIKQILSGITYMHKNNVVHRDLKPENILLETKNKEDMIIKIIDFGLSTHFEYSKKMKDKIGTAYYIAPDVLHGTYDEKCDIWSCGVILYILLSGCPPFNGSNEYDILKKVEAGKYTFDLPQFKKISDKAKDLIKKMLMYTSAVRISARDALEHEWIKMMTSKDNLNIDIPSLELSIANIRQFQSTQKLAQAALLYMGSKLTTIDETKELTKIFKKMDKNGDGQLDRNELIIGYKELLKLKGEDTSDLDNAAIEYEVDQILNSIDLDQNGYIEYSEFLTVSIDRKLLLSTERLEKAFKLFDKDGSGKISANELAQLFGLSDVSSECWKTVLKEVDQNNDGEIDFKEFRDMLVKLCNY
# assay-protocol: PfCDPK4 kinase inhibitors, biochemical, TCAMS library (AID 1159588)
# experimental-conditions: recombinant PfCDPK4, Kinase-Glo ATP depletion luminescence
Entries with a potency or affinity are not part of this list. Active and inactive are the calls of the source. No cut-off is given here; in the data, nearly all actives have IC50 up to about 0.91 µM.

substance-smiles	outcome
Cc1ccoc1C(=O)Nc1cccc(-c2cccc(-c3nc4ccccc4[nH]3)c2)c1	inactive
COc1ccc(OC)c(-c2cccc(-c3cccc(NC(=O)c4ccc([N+](=O)[O-])o4)c3)n2)c1	inactive
CCc1cn2c3c(cc(C(=O)N[C@@H](Cc4cccc(Cl)c4)[C@H](O)CNC4CC4)cc13)N(C)S(=O)(=O)CC2	inactive
COc1ccc(-c2ccc(NC(=O)c3cccc(Cl)c3)c(F)c2)cc1CN1CCCN(C)CC1	inactive

====

# subject-of-test: Plasmodium falciparum protein kinase 6 (PK6, PF3D7_1337100) (UniProt Q8IDW1)
# assay-protocol: PfPK6 kinase inhibitors, biochemical, TCAMS library (AID 1159586)
# experimental-conditions: recombinant PfPK6, Kinase-Glo ATP depletion luminescence
Potency and affinity values are given separately. Calls of active or inactive are those of the source. How the calls were made is not given here.
readout-name: outcome

compound	outcome
Cc1[nH]c2ccc(NS(C)(=O)=O)cc2c1C1CCN(CCC2CCN(C(=O)/C=C/c3ccc(Cl)c(Cl)c3)CC2)CC1	inactive
CCN(CC)CCCC(C)Nc1cc(C)nc2cc(Cl)ccc12 (centres undefined)	inactive
CC(C)N1CCN(CCCNc2c3ccccc3nc3ccccc23)CC1	inactive
O=C1OC2(CN1CC1CCN(Cc3ccc(O)c(Cl)c3)CC1)c1ccccc1-c1ccccc12	inactive
CCCCCCN(CCCCCC)CC(O)c1cc(-c2ccc(Cl)cc2)nc2c(C)cc(C)cc12 (centres undefined)	inactive

So what outcome did `CNc1nc(NN=Cc2cc3c(cc2[N+](=O)[O-])OCO3)nc(Nc2cccc(C(F)(F)F)c2)n1` get with Plasmodium falciparum protein kinase 6 (PK6, PF3D7_1337100) (UniProt Q8IDW1)? inactive

So what outcome did `CCc1ccc(C2CCN(CCCCNC(=O)c3ccc(NC(=O)c4ccc(Cl)cc4)cc3)CC2)c(OCC(=O)OC)c1` get with Plasmodium falciparum protein kinase 6 (PK6, PF3D7_1337100) (UniProt Q8IDW1)? inactive

Write down the reported outcome of `COc1ccc2c(NN=Cc3ccccc3F)cc(C)nc2c1` , test system: Plasmodium falciparum protein kinase 6 (PK6, PF3D7_1337100) (UniProt Q8IDW1). inactive

====

# assay-protocol: human hepatoma cell viability loss – ATP luminescence, cytotoxicity control for P. falciparum antimalarial project, primary screen (AID 2303);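 note: 0% = DMSO wells and 100% = digitonin-killed cells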
# experimental-conditions: HepG2 viability, 24-48 h, at 10 µM, hits give high values
Below, each entry is listed alongside its reported inhibition.
Write the answer as a number in %, unit excluded.

Previously resolved entries follow.
substance-smiles	readout-name	measure-unit	quantitative-result
CN=C(N)c1ccc(NC(=O)Nc2ccc(C(N)=NC)cc2)cc1	inhibition	%	-5
CN1CCC(C(=O)N(Cc2ccc(-c3ccc(CNCCc4ccc(S(C)(=O)=O)cc4)cn3)cc2)Cc2cccc(F)c2)CC1	inhibition	%	10
Clc1ccc(-c2cc(-c3csc(NCCN4CCOCC4)n3)on2)c(Cl)c1	inhibition	%	39
CCc1c(CCNCCc2cccc(CCNCCc3ccc(OC)c(OC)c3CC)c2)ccc(OC)c1OC	inhibition	%	100
COc1ccc2nc3cc(Cl)ccc3c(NCCCCN)c2c1	inhibition	%	52
O=C(/C=C/c1cccc2ccccc12)NCCCCCN1CCC(c2c[nH]c3ccccc23)CC1	inhibition	%	55

Any idea what its inhibition is? The compound is `N#Cc1ccc(N[C@@H](CC2CCCCC2)C(=O)Nc2ccc(-c3ccccc3)cc2)c2ccccc12` 34

# query: inhibition of entry `CCCCNC(=O)[C@H](Cc1ccccc1)NC(=O)c1ccc(O)c(-c2ccc(Cl)c(Cl)c2)c1` -8

Please report the recorded inhibition for `COc1ccc(Cl)cc1N1CCN(CCCNC(=O)c2ccc(-c3nc4ccc(C(F)(F)F)cc4[nH]3)c(C)c2)CC1` . 6

====

# subject-of-test: L-lactate dehydrogenase (Plasmodium falciparum (isolate CDC / Honduras)) (UniProt Q27743)
# assay-protocol: PfLDH activity inhibition – cell lysate, 3D7 strain, counter-screen for P. falciparum growth inhibition project (AID 2304);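 note: 0% = vehicle and 100% = reference inhibitor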
# experimental-conditions: P. falciparum 3D7 crude extract, LDH APAD/NBT absorbance; at 2 µM; hits give high values
readout-name: inhibition (%)
Use % as the unit, but write only the number.

// below: answered molecules
molecule	measure-unit	inhibition
COc1ccc(Cn2c(Nc3cccc(C(F)(F)F)c3)nc3cc(C(=O)NCCN4CCCC4)ccc32)cc1Cl	%	2
COc1ccc(Cn2c(Nc3cccc(C(F)(F)F)c3)nc3ccc(C(=O)NCCN4CCCC4)cc32)cc1Cl	%	2
CO/C(=C\C=C\c1cc2cc(Cl)c(Cl)cc2[nH]1)C(=O)NCCCN1CCN(c2cccc(CCO)c2)CC1	%	-1
CCCN(C(=O)c1ccccc1C)c1nnc(-c2cccc(C)c2)s1	%	-4
CC1(C)N=C(N)N=C(N)N1O	%	-5
CN(C)CCCN1CCN(C(=O)c2cccc(-c3noc(C(F)(F)F)n3)c2)CC1	%	-4

Reported inhibition for L-lactate dehydrogenase (Plasmodium falciparum (isolate CDC / Honduras)) (UniProt Q27743), given `COc1ccc(-n2ccnc2SCC(=O)Nc2cc(Cl)ccc2OC)c(OC)c1` ? -8

Any idea what inhibition came out for O=C(/C=C/c1ccc(Cl)c(Cl)c1)NCCCCCN1CCCC(CNS(=O)(=O)c2cccc(C(F)(F)F)c2)C1 (stereo not given) on L-lactate dehydrogenase (Plasmodium falciparum (isolate CDC / Honduras)) (UniProt Q27743)? 5

Give the reported inhibition for `CN1CCC(N2CCN(Cc3ccc(-c4cccc(-c5nc6ccccc6[nH]5)c4)cc3)CC2)CC1` (system: L-lactate dehydrogenase (Plasmodium falciparum (isolate CDC / Honduras)) (UniProt Q27743)). -1

Recall the recorded inhibition for C=CC(=O)Nc1ccc(Cl)cc1C(O)c1ccccc1 (stereo not given) with L-lactate dehydrogenase (Plasmodium falciparum (isolate CDC / Honduras)) (UniProt Q27743) and state it. 0

Reported inhibition for L-lactate dehydrogenase (Plasmodium falciparum (isolate CDC / Honduras)) (UniProt Q27743), given `CN(C)c1ccc(Br)c(Br)c1` ? -5

// map `CNS(=O)(=O)c1ccc(NC(=O)c2cc(-c3cccnc3)nc3ccc(Br)cc23)cc1` to recorded inhibition (system: L-lactate dehydrogenase (Plasmodium falciparum (isolate CDC / Honduras)) (UniProt Q27743)) 5

// map `COc1ccccc1N1CCN(CCCCNC(=O)c2ccc(NC(=O)c3cc(Cl)cc(Cl)c3)cc2)CC1` to recorded inhibition (system: L-lactate dehydrogenase (Plasmodium falciparum (isolate CDC / Honduras)) (UniProt Q27743)) 2

Given the entry `COc1ccc(Nc2nccc(-c3ccc(NC(=O)c4cc5cc(F)ccc5[nH]4)cc3)n2)cc1` , what inhibition was observed with L-lactate dehydrogenase (Plasmodium falciparum (isolate CDC / Honduras)) (UniProt Q27743)? -2

State its inhibition on L-lactate dehydrogenase (Plasmodium falciparum (isolate CDC / Honduras)) (UniProt Q27743): Cc1ccnc(NC(c2cccc(OCc3ccccc3)c2)c2ccc3cccnc3c2O)c1 (stereo not given) -2

Entry `CC(C)(C)c1ccc(-c2ccccc2CNC(=O)c2cccc(O)c2)cc1` , system L-lactate dehydrogenase (Plasmodium falciparum (isolate CDC / Honduras)) (UniProt Q27743): what inhibition was measured? -2

For the record CC(C)(C)CCN1CCC(CNC(=O)c2cc(-c3cccc(Cl)c3)cs2)C1 (stereo not given) , what value of inhibition is listed for L-lactate dehydrogenase (Plasmodium falciparum (isolate CDC / Honduras)) (UniProt Q27743)? 3

Record O=S(=O)(c1ccccc1OC(F)(F)F)C1C[C@H]2CC[C@@H](C1)N2S(=O)(=O)c1cccc(C(F)(F)F)c1 (stereo not given in full) : what is its inhibition with L-lactate dehydrogenase (Plasmodium falciparum (isolate CDC / Honduras)) (UniProt Q27743)? 2

Item `CCOc1cc(NCCCNc2ncc([N+](=O)[O-])cc2C)nc2ccccc12` with L-lactate dehydrogenase (Plasmodium falciparum (isolate CDC / Honduras)) (UniProt Q27743) - inhibition? 2

Requested read-out inhibition, target or system L-lactate dehydrogenase (Plasmodium falciparum (isolate CDC / Honduras)) (UniProt Q27743), entry `Cc1cc2ncn(-c3nccc(NCc4cccnc4)n3)c2cc1C` -4
